assay_notes: In vitro inhibitory concentration against Trypanosoma cruzi epimastigotes
Type: functional
Entries whose IC50 is below 700 nM take y; entries at or above 700 nM take n.

input: Report whether reported IC50 is lower than 700 nM (strictly) for CCC(=O)N1CCCC(C(C)(O)[C@H]2CC[C@H]3[C@@H]4CCC5C[C@@H](O[Si](C)(C)C(C)(C)C)CC[C@]5(C)[C@H]4CC[C@]23C)C1 (stereo not given in full)
output: y

input: Request: CC(O)(c1ccccn1)[C@H]1CC[C@H]2[C@@H]3CCC4C[C@@H](O)CC[C@]4(C)[C@H]3CC[C@]12C (stereo not given in full)
output: n

input: Please answer likewise for CC(O)(c1ccncc1)[C@H]1CC[C@H]2[C@@H]3CCC4C[C@@H](O[Si](C)(C)C(C)(C)C)CC[C@]4(C)[C@H]3CC[C@]12C (stereo not given in full)
output: y

input: Okay, and CCC(=O)N1CCCCC1C(C)(O)[C@H]1CC[C@H]2[C@@H]3CCC4C[C@@H](O[Si](C)(C)C(C)(C)C)CC[C@]4(C)[C@H]3CC[C@]12C (stereo not given in full) ?
output: n

----------
Can you tell me IC50 for the items I'm about to list?
Tested on: Leishmania donovani
assay_notes: In vitro inhibitory concentration against Leishmania donovani intracellular amastigotes
Type: functional, organism-based
# unit: µM | format: bare number

input: Request the reported IC50 associated with CC(O)(C1CCCNC1)[C@H]1CC[C@H]2[C@@H]3CCC4C[C@@H](O)CC[C@]4(C)[C@H]3CC[C@]12C (some centres undefined)
output: 4.8

input: Next compound up: CCC(=O)N1CCCCC1C(C)(O)[C@H]1CC[C@H]2[C@@H]3CCC4C[C@@H](O)CC[C@]4(C)[C@H]3CC[C@]12C (some centres undefined)
output: 23.1

----------
Kindly state pIC50 for each of the entries shown.
assay_notes: In vitro inhibitory concentration against Trypanosoma cruzi epimastigotes
Type: functional
Entry type: numeric. Quantity: pIC50, the -log10 of concentration in molar units.

input: What value of pIC50 has been reported for the following compound? CC(O)(C1CCCNC1)[C@H]1CC[C@H]2[C@@H]3CCC4C[C@@H](O[Si](C)(C)C(C)(C)C)CC[C@]4(C)[C@H]3CC[C@]12C (stereo partly specified)
output: 6.00

input: Ok, now CC(O)(c1ccncc1)[C@H]1CC[C@H]2[C@@H]3CCC4C[C@@H](O)CC[C@]4(C)[C@H]3CC[C@]12C (stereo partly specified)
output: 6.17

input: Follow-up item: CC(O)(c1cccnc1)[C@H]1CC[C@H]2[C@@H]3CCC4C[C@@H](O)CC[C@]4(C)[C@H]3CC[C@]12C (stereo partly specified)
output: 6.21

input: Next: CC(O)(C1CCCCN1)[C@H]1CC[C@H]2[C@@H]3CCC4C[C@@H](O[Si](C)(C)C(C)(C)C)CC[C@]4(C)[C@H]3CC[C@]12C (stereo partly specified)
output: 6.22

input: Queued: CC(O)(C1CCCCN1)[C@H]1CC[C@H]2[C@@H]3CCC4C[C@@H](O)CC[C@]4(C)[C@H]3CC[C@]12C (stereo partly specified)
output: 6.03

input: Same question, CC(O)(c1cccnc1)[C@H]1CC[C@H]2[C@@H]3CCC4C[C@@H](O[Si](C)(C)C(C)(C)C)CC[C@]4(C)[C@H]3CC[C@]12C (stereo partly specified) this time
output: 5.92
